Test system: Kuramochi cells labeled with mApple-H2B
Assay: IncuCyte Cell Proliferation Assay
Format: cell-based
Details: 72 h
Metric name: IC50

Compound	Recorded result
Cc1ccc(CNC(=O)[C@@H]2CN(C(=O)c3cnn(Cc4ccccc4)c3)CC23CN(C(=O)[C@H]2CC2(C)C)C3)nn1 [I-252]	5 to 20 µM
COC[C@H]1CCCN(C(=O)[C@@H](NC(=O)[C@@H]2CN(C(=O)c3cncs3)CC23CN(C(=O)[C@H]2CC2(C)C)C3)[C@@H](C)OC[C@H]2CC[C@H](NC(C)=O)CC2)C1 [I-434]	> 20 µM
Cc1cc(C(=O)N2CC(C(=O)N[C@H](C(=O)N3CCCCC3)[C@@H](C)OCC3CCCCC3)C3(C2)CN(C(=O)[C@H]2CC2(C)C)C3)[nH]n1 (some centres unmarked) [I-264]	> 20 µM
COC[C@H]1CCCN(C(=O)[C@@H](NC(=O)[C@@H]2CN(C(=O)c3cnn(Cc4ccccc4)c3)CC23CN(C(=O)[C@H]2CC2(C)C)C3)[C@@H](C)OC)C1 [I-283]	> 20 µM
CNC(=O)C(NC(=O)[C@@H]1CN(C(=O)c2cncs2)CC12CN(C(=O)[C@H]1CC1(C)C)C2)c1cccc(C2CCC(F)(F)CC2)n1 (some centres unmarked) [I-411]	> 20 µM
COC[C@H]1CCCN(C(=O)[C@@H](NC(=O)[C@@H]2CN(C(=O)c3cncs3)CC23CN(C(=O)[C@H]2CC2(C)C)C3)[C@@H](C)O[C@H](C)C2CCCCC2)C1 [I-367]	0.5 to 5 µM
CC1(C)C[C@@H]1C(=O)N1CC2(CN(C(=O)c3cncs3)C[C@H]2C(=O)NC(c2cccc(C3CCCCC3)n2)C2CCOC2)C1 (some centres unmarked) [I-493]	5 to 20 µM
CC1(C)C[C@@H]1C(=O)N1CC2(CN(C(=O)c3cnn(Cc4ccccc4)c3)C[C@H]2C(=O)N[C@@H]2CCN(C3CC3)C2=O)C1 [I-259]	> 20 µM
CNC(=O)[C@@H](NC(=O)[C@@H]1CN(C(=O)c2cncs2)CC12CN(Cc1ccco1)C2)[C@@H](C)OCC12CCC(CC1)OC2 [I-349]	> 20 µM
Cc1ccc(CNC(=O)[C@@H]2CN(C(=O)c3cnn(Cc4ccccc4)c3)CC23CN(C(=O)[C@H]2CC2(C)C)C3)cn1 [I-364]	5 to 20 µM
CNC(=O)[C@@H](NC(=O)[C@@H]1CN(C(=O)c2cnn(Cc3ccccc3)c2)CC12CN(C(=O)[C@H]1CC1(C)C)C2)[C@@H](C)N(C)CC1CCCCC1 [I-266]	> 20 µM
C[C@@H](OCC1CCC(F)(F)CC1)[C@H](NC(=O)[C@@H]1CN(C(=O)c2cncs2)CC12CN(C(=O)C(C)(C)C1CC1)C2)C(=O)N1CCC(O)CC1 [I-337]	0.5 to 5 µM
COC[C@@H]1CCCN(C(=O)[C@@H](NC(=O)C2CN(C(=O)c3cncs3)CC23CN(C(=O)[C@H]2CC2(C)C)C3)[C@@H](C)OCC2CCCCC2)C1 (some centres unmarked) [I-195]	≤ 0.5 µM
C[C@@H](OCC1CCC(F)(F)CC1)[C@H](NC(=O)[C@@H]1CN(C(=O)c2cn[nH]c2)CC12CN(C(=O)[C@H]1CC1(C)C)C2)C(=O)N1CCOCC1 [I-301]	> 20 µM
CNC(=O)[C@@H](NC(=O)[C@@H]1CN(C(=O)c2cncs2)CC12CN(CC1CCCO1)C2)[C@@H](C)OCC1CCCCC1 (some centres unmarked) [I-352]	> 20 µM
CNC(=O)[C@@H](NC(=O)[C@@H]1CN(C(=O)c2cncs2)CC12CN(C(=O)[C@H]1CC1(C)C)C2)c1nnc(C2CCCCC2)o1 [I-429]	> 20 µM
C[C@@H]1C[C@H](C)CN(C(=O)[C@@H](NC(=O)C2CN(C(=O)c3cnn(Cc4ccccc4)c3)CC23CN(C(=O)[C@H]2CC2(C)C)C3)[C@@H](C)OCC2CCCCC2)C1 (some centres unmarked) [I-104]	0.5 to 5 µM
C[C@@H](OCC1CCC(F)(F)CC1)[C@H](NC(=O)[C@@H]1CN(C(=O)c2cncs2)CC12CN(C(=O)[C@H]1CC1(C)C)C2)C(=O)N1CCC(O)CC1 [I-383]	0.5 to 5 µM
CNC(=O)[C@@H](NC(=O)[C@@H]1CN(C(=O)c2cnn(Cc3ccccc3)c2)CC12CN(C(=O)[C@H]1CC1(C)C)C2)[C@@H](C)OCC1CCCCCC1 [I-166A]	≤ 0.5 µM
C[C@@H](OCC1CCCCC1)[C@H](NC(=O)[C@@H]1CN(C(=O)c2cnn(Cc3ccccc3)c2)CC12CN(C(=O)[C@H]1CC1(C)C)C2)C(C)(C)O [I-281]	≤ 0.5 µM
CNC(=O)[C@@H](NC(=O)[C@@H]1CN(Cc2cncs2)CC12CN(C(=O)[C@H]1CC1(C)C)C2)[C@@H](C)OCc1ccccc1 [I-51A]	5 to 20 µM
Cc1ccc(CNC(=O)[C@@H]2CN(C(=O)c3cnn(Cc4ccccc4F)c3)CC23CN(C(=O)[C@H]2CC2(C)C)C3)nn1 [I-407]	> 20 µM
CNC(=O)[C@@H](NC(=O)[C@@H]1CN(C(=O)c2cnn(Cc3ccccc3)c2)CC12CN(C(=O)[C@H]1CC1(C)C)C2)[C@@H](C)OCc1ccc(Br)cc1 [I-263]	0.5 to 5 µM
